EXPERIMENT_SUMMARY: Steady-state plasma pharmacokinetics of intravenous polymyxin B in critically ill patients (non-compartmental analysis)
Format: in vivo, human
MEASUREMENT_SETUP: human, elderly group ≥65 years (n = 17), iv 1.25–1.5 mg/kg q12h after loading dose, steady state (≥6 doses), HPLC-MS/MS, non-compartmental, mean ± SD, SD, read-out: AUCss, 0–12 h
Where a SMILES comes first, the peptide text is derived from it. Bridges are numbered along the chain shown (N, C = ends). [ ]: non-standard residue; d: D form. The star is where a group is joined. X1 = CC[C@H](C)CCCCC(=O)*; Dab = NCC[C@H](N)C(=O)O
VALUE_TYPE: AUC(0-t) (ng·h/mL)
Note: unit ng·h/mL is implicit; provide only the numeric part.

Ask: Consider the compound shown here: CC[C@H](C)CCCCC(=O)N[C@@H](CCN)C(=O)N[C@H](C(=O)N[C@@H](CCN)C(=O)N[C@H]1CCNC(=O)[C@H]([C@@H](C)O)NC(=O)[C@H](CCN)NC(=O)[C@H](CCN)NC(=O)[C@H](CC(C)C)NC(=O)[C@@H](Cc2ccccc2)NC(=O)[C@H](CCN)NC1=O)[C@@H](C)O [polymyxin B] (X1-[Dab]T[Dab][Dab][Dab][dF]L[Dab][Dab]T; lactam 4-C) What is its recorded AUC(0-t)?
Reply: 51800

Data credit: paper PMC10867212
